Assay procedure: yeast display, Sf9 membrane polyspecificity reagent, FACS + sequencing; frameworks hold sequencing errors
Property: polyreactivity (PSR sort gate)

These solved cases illustrate the format of a correct answer.
Sequence record | Result
QVQLVESGGGLVQAGGSLRISCAASGIIFRLNAMGWYRQAPGKERELVAAIRRRGGSTYYADSVKGRFTISRDNAKNTVYLQMNSLKPEDTAVYYCAKDPHGSDFGYWGQGTQVTVSS | low polyreactivity
QVQLVESGGGLVQAGGSLRLSCAASGFIFDIYAMGWYRQAPGKERELVAAITWNSGSTHYADSVKGRITISRDNAKNTVYLQMNSLKPEDTAVYYCAADEVTYAYYPYDYWGQGTQVTVSS | low polyreactivity
QVQLVESGGGLVQAGGSLRLSCAASDAMGWYRRAPGKERELVASISNGVSTNYADSVKGRFTISRDNAKNTVYLQMNSLKPEVTAVYYCASDAKTVGRDDLYWYEVEFDYWGQGTQVSVSS | low polyreactivity
QVQLVESGGGLVQAGASLRLSCAASGRILKTYAMGSYRQAPGKERELVAAITGRGGRTYYADSVKGRFTISRDNAKNTFYLQMISLKPEDTAVYYCAAYYGPSRSLYYYWGQGSQVTVSS | high polyreactivity
QVQLVESGGGLVQAGGSLRLSCAASGITFVRNAMGWYRQAPGKEREFVAAISGSGVSTYADSVKGRFTISRDNAKNTVYLQMNSLKPEDTAVYYCARDFPWSYAWYDYWGQGTQVTVSS | low polyreactivity

-- ask Form field: reported polyreactivity (PSR sort gate) of QVQLVESGGGLVQAGGSLRLSCAASGSTLDFYAMGWYRPAPGKERELVAAITWRGGSTYYADSVKGRFTISRDNAKNTVYLQMNCLKPEDTAVYYCAAKSYWLKSQYYSWGQGTQVTVSS
-- reply high polyreactivity

-- ask Query QVQLVESGGGLVQAGGSLRLSCAASGRIFYRYAMGWYRQAPGKEREFVAAISGTGGSTYYADSVKGRFTISRDNAKNTVYLQMNSLKPEDTAVYYCAASVVSRPTYYAYYYWGQGTQVTVSS next
-- reply high polyreactivity

-- ask Query QVQLLESGGGLVQAGGSLRLRCAASGFIISRYAMAWYRQAPGKEMELVAGITGSGGSTYYADSVKGRFTISRDNAKNTVYLQMNSLKPEDTAVYYCAAGRRGGALLFYYWGQGTLVTVSS next
-- reply high polyreactivity

-- ask Query QVQLVESRGGLVQAGGSLSLSCAASGSTYNASAMGWYRQATGKERELVAAISSGGSTYYADSVKGRFTISRDNANNTVYLQMNSLKPEDTAVLYCAAVLTGHYYRFDYWGQGTQVNVSS next
-- reply low polyreactivity

-- ask Query QVQLVESGGGLVQAGGSLRLSCAASGIIFRYYALGWYRKAPRKERELVAAINWRGGRTYYADSVKGRFTISRDNAKNTVYLQMNSLKPEDTAVYYCAAYIYYPYRNDYWGQGTQVTVSS next
-- reply high polyreactivity

-- ask Query QVQLVESGGGLVQAGGSLRLSSAASGSTFEAYTMGWYRPAPGKERELVAAISRSGGSTYYADSVKGRFTISRDNAKNTVYLQMNSLKPEDTAVYYCAASRYIGYNYWGQGTQVNVSS next
-- reply high polyreactivity

---

Assay procedure: yeast display, Sf9 membrane polyspecificity reagent, FACS + sequencing; frameworks hold sequencing errors
Property: polyreactivity (PSR sort gate)

These solved cases illustrate the format of a correct answer.
Sequence record | Result
QVQLVESGGGLVQAGGSLRLSSAASGRIFAKYAMGWYRQAPGKERELVAAISWGGGSTYYADSVKGRFTISRDNAKNTVYLQMNSLKPEDTAVYYCAARIPKQRDVRGSGMNYWGQGTQVTVSS | high polyreactivity
QVQLVESGGGLVQAGGSLRLSCAASASTFGGYVMARYRQAPGKERELVAAISGNGASTTYADSVKGRFTISRDNAKNTVYLQMNSLKPEDTAVYDSAALFRKAHSDYDYWGQGTQVTVSS | low polyreactivity
QVQLVESGGGLVQAGGSLRLSCAASGFIFFNYAMGWYRQAPGKERELVAVIDRSGGTTYYADSVKGRFTISRDNAKNTVYLQMNSLKPEDTAVYYCNADDFTYPSGWGFIYDYWGQGTQVTVSS | low polyreactivity
QVQLVESGGGLVQAGGSLRLSCAASGRTFTYYAMGWYRQAPGKERELVAAISWSGDDTYYADSVKGRFTISRDNAKNTVYLQMHSLKPEDTAVYYCAAEGGGVYSDYRENTGEDYWGQGTQVTVSS | low polyreactivity

Proceeding to the next sequence to report its polyreactivity (PSR sort gate).
-- ask Form field: reported polyreactivity (PSR sort gate) of QVQLVESGGGLVQAGGSLRLSCAASGRTFRNYAMGWYRQAPGKERELVAAISASGGSTYYADSVKGRFTISRDNAKNTVYLQMNSLKPEDTAVYYCAARYQGFGYRKYDYWGQGTQVTVSS
-- reply high polyreactivity

---

Assay procedure: yeast display, Sf9 membrane polyspecificity reagent, FACS + sequencing; frameworks hold sequencing errors
Property: polyreactivity (PSR sort gate)

Sequence record | polyreactivity (PSR sort gate)
QVQLVESGGGLVQAGGSLRLSCAASGRTFANYVMGWYRQAPGKERELVAGMTGSGGSTYYADSVKGRFTISRDNAKNTVYLQMNSLKPEDTAVYYCAKRYVYVASMGYWGQGTQVTVSS | high polyreactivity
QVQIVESGGGLVQAGGSLRLRCAASGSIFSTYAMGWYRQEPGKERELVADISGRVGSTYYADSVKGRFTISRDNAKNTVYLQMNSLKPEDTAVYYCAAALDFWPGYEYYYWGQGTQVTVSS | low polyreactivity
QVQLVESGGGLVQAGGSLRLSCAASVFILRYYAMGWYRQAPGKERELVAAISYTAGSTYYADSVKGRFTISRDNAKNTVYLQMNSLKPKDTAVYYCAASYTPWRYVPRDYWGQGTQVTVSS | high polyreactivity
QVQLVESGGGLVQAGGSLSISCAASGRTFYAYAMGWYRQAPGTERELVASIDKSGGSTYYADSVKGRFTISRRIRRYRLFTDEQPETGRYRCLLLRCWCVVLSDFQFWGDFDYDYWGQGTQVTVSS | low polyreactivity

Proceeding to the next sequence to report its polyreactivity (PSR sort gate).
-- ask Form field: reported polyreactivity (PSR sort gate) of QVQLVESGGGLVQAGGSLRLSCAASGFIFGYYAMGWYRQAPGKERELVAAISYSGGSTYYADSVKGRFTISRDNAKNTVYLQMNSLKPEDTAVYYCAKYGQSNYDWGQGTQVTVSS
-- reply high polyreactivity

---

Assay procedure: yeast display, Sf9 membrane polyspecificity reagent, FACS + sequencing; frameworks hold sequencing errors
Property: polyreactivity (PSR sort gate)

Sequence record | Property | Result
QVQLVESGGGLDQAGGSLRLSCAASGSIIWYYAMGWYRQAPGKESELVASISRRGGSTYYADSVKGRFTISRDNAKYTVYLQMNSLKPEDTAVYYCAAYSRTTGSTVQGTYDYWGQGTQVSVSS | polyreactivity (PSR sort gate) | low polyreactivity
QVQLVESGGGIVQAGGSLRLSCAASGRIFSPNAMGWYRQAPGKERELVASISSAGSTNYADSVKGRFTISRDNAKNTVDLLMKSLIPEDTAVYYCDADQPYYGYWDWYSHEYDYWGQGTQVSVSS | polyreactivity (PSR sort gate) | low polyreactivity

---

Assay procedure: yeast display, Sf9 membrane polyspecificity reagent, FACS + sequencing; frameworks hold sequencing errors
Property: polyreactivity (PSR sort gate)

These solved cases illustrate the format of a correct answer.
Sequence record | polyreactivity (PSR sort gate)
QVQLVESGGGLVQAGGSLRLSCAASGFIFTDYAMGWYRQAPGKEREFVAAIDWSGGNTYYADSVKGRFTISRDNAKNTVFLQMNSLKPEDSAVYYCAASGSAREYDYWGQGTQVTVSS | low polyreactivity
QVQRVESGGGLVQEGGSLRLSCAASGRIFGYYAMGWYRQAPGKERELVAVITGNGSTYYADSVKGRFTISRDNAKNTVYLQRNSLNPEETAVYYCAARYVFVVRGRTVPRYYYWGQGTQVTVSS | high polyreactivity
QVQLVESGGGLVQAGGSLRLSCAASGFIFYRYTLGWSRQAPGKERELVAAITSGGSTYYADSVKGRFTISRDNAKNTVYLQMNSLKPEDSAVYYCAAAYQRWFNRRDYWGQGTQVTVSS | high polyreactivity
QVQLVESGGCLVQAGGSLSLSCAASGSIFGWYVMGWYRQAPGKERELGAAISSVGSTYYADSVKGRFTISRDNAKNTVYLQMNSLKPEDTAVYYCAKLRYPYLFSDDSEYWGQGTQVTVSS | low polyreactivity
QVQLVESGGGLVQAGGSLRLSCAASGRILGFNVMGWYRQAPGKERELVAAITTSGGSTYYADSVKGRFTISRDNAKNTVYLQMNSLKPEDTAVYYCAARYRRFRFTHYDYWGQGTQVTVSS | high polyreactivity
QVQLVESGGGLVQAGGSLRLSCAASGRIFYYYAMGWYRQAPGKEREFVAAIRVTSDSTYYADSVKGRFTISRDNAKNTVYLQMNSLKPEDTAVYYCAADSFYFPYDYWGQGTQVTVSS | high polyreactivity
QVQLVESGGGLVQAGGSLRLSCAASGFTSSINAMGWYRQEPGKERELVAAIRSGGSTNYADSVKGRFTISRDNAKNTVYLQMNSLKPEDTAVYYCAAVTRVYGKTMGYWGQGTQVTVSS | high polyreactivity
QVQLVESGGGLVQAGGSLRLSCAASGRSLRYYAMGWYRQAPGKERELVAVITRDGSTYYADSVKGRFTIPRDNAKNTVYLQMNSLKPEDTAVSYCVYGLTYRSFYYWGQGTQVTVSS | high polyreactivity

-- ask Form field: reported polyreactivity (PSR sort gate) of QVQLVESGGGLVQAGGSLRLSCAASGSIYYHNAMGWYRQAPGKERELVAAITGSGGSTYYADSVKGRFTISRDNAKNTVYLQMNSLKPEDTAVYYCAADGYTKWWISWGYDYWGQGTQVTVSS
-- reply low polyreactivity

-- ask Query QVHLVESGGGLVQAGGSLRLSCAASGSIFRLYSMGWYRQAPGKERELVARITTGGSTNYADSVKGRFTISRDNAKNTVYLQMNSLKPEDTAVYYCNAGVWVTAQLGLQKYSYWGQGTQVTVSS next
-- reply high polyreactivity

-- ask Query QVQLVESGGGLVQAGGSLRLSCAASGFTLGSYVMGWSRQAPGKERELVARITWSGGSTYYADSVKGRFTISRDNAKNTVYLQMNSLKPEDTAVYYCNTGYWARLAYWPFNYKWDDYWGQGTQVTVSS next
-- reply high polyreactivity
